FYI, the data here is from PubChem BioAssay AID1159580.

# test name: chemical genetic growth profiling, strain panel (AID 1159580);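 note: tested at 20 µM; growth read once vehicle control cultures reached saturation at 30 °C; 1 = growth at the plate median or of vehicle wells; lower values mean less growth of the strain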
# recorded conditions: S. cerevisiae deletion strains, growth OD, locus YKR001C, strain vps1, stronger effect = lower value
In all, about 5,500 compounds went through this assay and about 2,000 (36%) were called active. Not shown: some 18% with an inconclusive outcome. This is one part of the list.
Reported normalized growth values for the following compounds.
When you answer, write just the number.

Solved cases below.
# compound, normalized growth
rows = [
    ("CCOC(=O)[C@H](CCc1ccccc1)N[C@H]1CCc2ccccc2N(CC(=O)O)C1=O", 0.983),
    ("CCN(CC)CCCC(C)Nc1ccnc2cc(Cl)ccc12 (stereo unspecified)", 1.01),
    ("S=c1nc[nH]c2nc[nH]c12", 0.99),
]

The recorded normalized growth for CC(N)C(=O)OC(C)(C)Cc1ccc(Cl)cc1 (stereo unspecified) is 1.03

Reported normalized growth of CN1CCC(=C2c3ccccc3CC(=O)c3sccc32)CC1 : 1.01

Entry CCN(CC)CCCC(C)Nc1c2ccc(Cl)cc2nc2ccc(OC)cc12 (stereo unspecified) — recorded normalized growth = 0.616

Notebook: CCOC(=O)C(=O)C1(C(=O)OCC)Oc2cc(OC)cc(OC)c2C(=O)C1c1ccccc1 (stereo unspecified) , normalized growth read as 0.958
